Molecular target: F1FO-ATPase
Experiment: ATP hydrolysis by F1FO-ATPase in SMPs (coupled assay)
Conditions: bovine SMPs
METRIC: IC50 (µM)
Give the number; µM is assumed, so skip it.

query: Can you look up the measured IC50 of `[H]/N=C(\N/C(=N/[H])Nc1ccc(Cl)cc1)NC(C)C` for me?
result: 6.8

* * *

Biological target: complex I (NADH:ubiquinone oxidoreductase)
Assay: NADH:decylubiquinone oxidoreduction by isolated complex I
Settings: isolated bovine complex I, 32°C, pH 7.2, 200 μM NADH, 200 μM decylubiquinone; 95% confidence intervals
METRIC: IC50 (mM)
Give the number; mM is assumed, so skip it.

N=C(N)N: 25.8

Shift focus to the following entry.
query: Can you look up the measured IC50 of `CN(C)C(=N)N=C(N)N` for me?
result: 19.4

* * *

Tested on: ATP synthase
Construct: from tissue; host or cells: SMPs from bovine heart mitochondria
Assay: Succinate-driven ATP synthesis by SMPs
Assay type: biochemical, bovine
Conditions: 15 mM buformin, 100 mM metformin; others up to concentrations above IC50 for ATP hydrolysis; corrected for succinate oxidation
METRIC: effect on succinate-driven ATP synthesis

CN(C)C(=N)N=C(N)N: No inhibition
CCCCNC(=N)NC(=N)N: No inhibition

* * *

Target: complex III
Assay: Complex III inhibition (succinate:cytochrome c oxidoreduction)
Conditions: read-out: IC50 on complex III
METRIC: IC50 (mM)
Give the number; mM is assumed, so skip it.

query: Can you look up the measured IC50 of `CC1(C)N=C(N)N=C(N)N1c1ccc(Cl)cc1` for me?
result: 2.48

* * *

System: isolated F1 domain of ATPase
Construct: from tissue; host or cells: bovine mitochondria
Assay: ATP hydrolysis by the isolated F1 domain
Format: biochemical, bovine
Details: at the SMP IC50 values
Parameter inhibition of ATP hydrolysis by the isolated F1 domain: see the listing below.
Give the number; % is assumed, so skip it.

[H]/N=C(/N)N/C(=N/[H])NCCc1ccccc1: 32

Shift focus to the following entry.
query: Can you look up the measured inhibition of ATP hydrolysis by the isolated F1 domain of `CCCCNC(=N)NC(=N)N` for me?
result: 74

src = paper PMC4148174
